# Assay Notes: Stability (mean % remaining) in human plasma after incubation at 37 °C for 4h
# Assay type: ADME, cell-free
# Assay Setup: read-out: %R
Measure: remaining at 4 h
Phrase the answer as number then unit, nothing more needed.

Compound | remaining at 4 h
CC(Cc1ccccc1)C(=O)SCCCCCCC(=O)Nc1nc(-c2ccccc2)cs1 (configuration not stated) | 99%

Query compound follows.
Determine from records and report remaining at 4 h for CC(C)C(=O)SCCCCCCC(=O)Nc1nc(-c2ccccc2)cs1
71%

* * *

Assign pEC50 to each entry below.
# System: A498
# Assay Notes: Inhibition of A498 cell proliferation (mean)
# Assay type: functional, cell-based
# Assay Setup: Homo sapiens
One number for each entry, as −log10 of the molar value.

Worked set:
Molecule | Measured On | Meas Value
CC(Cc1ccccc1)C(=O)SCCCCCCC(=O)Nc1nc(-c2ccccc2)cs1 (stereo not drawn) | A498 | 5.59
CC(C)C(=O)SCCCCCCC(=O)Nc1nc(-c2ccccc2)cs1 | A498 | 5.17

As a next step, examine the molecule that follows.
Give the value of pEC50 reported for the following: CC(C(=O)SCCCCCCC(=O)Nc1nc(-c2ccccc2)cs1)c1ccccc1 (stereo not drawn)
4.59
